Catalogue of MIC readings, one per entry.
Test system: Mycolicibacterium smegmatis
Measurement description: Antibacterial activity against Mycobacterium smegmatis MC2 155 under hypoxic condition after 96 hrs by MTT assay
Type: functional
Measurement conditions: str. MC2 155, 96 h
Parameter: MIC (µg/mL)

[[record]]
molecule = "NNC(=O)c1ccncc1"
qualifier_symbol = "="
measured_number = 25

[[record]]
molecule = "COC(=O)CCCc1cn(CCOCCOCCOCCOCCOCCOCCOCCOCCOCCOCCNC(=O)CCCC[C@@H]2SC[C@@H]3NC(=O)N[C@@H]32)nn1"
qualifier_symbol = ">"
measured_number = 200

[[record]]
molecule = "Cc1cc(=O)n2c3c(c4c(cc13)c(COC(=O)CCCc1cn(CCOCCOCCOCCOCCOCCOCCOCCOCCOCCOCCNC(=O)CCCC[C@@H]3SC[C@@H]5NC(=O)N[C@@H]53)nn1)cc(=O)n4C)OC2"
qualifier_symbol = "="
measured_number = 6.25

[[record]]
molecule = "Cc1cc(=O)n2c3c(c4c(cc13)c(CO)cc(=O)n4C)OC2"
qualifier_symbol = "="
measured_number = 1

